- method.description: IN Cell qHTS Assay for Inhibitors of the mTORC1 Signaling Pathway in MEF (Tsc2-/-, p53-/-) Cells: Sytravon; further: nearly all actives have a fitted effect of over 60% in size
- reported.conditions: phospho-rpS6 immunofluorescence, 24 h; series mostly up to 38.3 µM
- Excerpt: NIH Molecular Libraries Probe Production Centers Network [MLPCN] NIH Chemical Genomics Center [NCGC] […] NCGC IN Cell Assay Protocol: For quantitative high throughput analysis of mTORC1 signaling, we developed a cell-based assay for immuno-fluorescence based detection of rpS6 phosphorylation on the Acumen Explorer that will be used a platform for the primary small molecule screen. […]
Among all 2,100 compounds or so, about 210 (10%) were called active. Inconclusive results (about 53%) are left out. The call rests on the fitted dose curve; in most records, active means well fitted inhibition curve with a large enough effect; inconclusive means small, poorly fitted or top-dose-only effect, or effect the other way; inactive means no such curve, though single readings can be large or run the other way. The list shows a part of the results.
Outcomes: t = active, f = inactive

>  <compound>
CCN1C(=O)C(O)(c2c(C)[nH]c3ccccc23)c2ccccc21 (stereo not given)

>  <assigned.category>
f

$$$$
>  <compound>
CCC1CCc2nc3sc(C(=O)Nc4ccc(F)c(F)c4)c(N)c3cc2C1 (stereo not given)

>  <assigned.category>
t

$$$$
>  <compound>
CCC(C)NC(=O)c1sc2nc(C)c(C(=O)Nc3ccc(C)cc3C)c(-c3ccc(Cl)cc3)c2c1N (stereo not given)

>  <assigned.category>
f

$$$$
>  <compound>
CCC1CCc2nc3sc(C(=O)Nc4ccc(C)cc4)c(N)c3cc2C1 (stereo not given)

>  <assigned.category>
t

$$$$
>  <compound>
Cc1ccc(NC(=O)c2c(C)oc3ccc(O)c(CN4CCCCC4)c23)c(C)c1

>  <assigned.category>
f

$$$$
